Glutamate receptor ionotropic, NMDA 1 (Rattus norvegicus): recorded AC50 for assorted molecules; further: assay procedure not described here

Per the record, `CN(C)CCc1c[nH]c2ccc(CS(=O)(=O)N3CCCC3)cc12` has AC50 of > 30 µM

Per the record, C[C@H](Cn1cnc2c(N)ncnc21)OCP(=O)(O)O [TENOFOVIR ANHYDROUS] has AC50 of > 30 µM

Per the record, `Nc1nnc(-c2cccc(Cl)c2Cl)c(N)n1` has AC50 of > 10 µM

Per the record, `COc1nc(C)nc(Cl)c1N=C1NCCN1` has AC50 of > 30 µM

Per the record, `CCC1(c2ccccc2)C(=O)NCNC1=O` has AC50 of > 10 µM

Per the record, `CNCCc1ccccn1` has AC50 of > 30 µM

Per the record, CC(C)(Oc1ccc(Cl)cc1)C(=O)OCCOC(=O)c1cccnc1 [ETOFIBRATE] has AC50 of > 30 µM

Per the record, `CC(=O)Oc1ccccc1C(=O)O` has AC50 of > 10 µM

Per the record, CCC(NC(C)C)C(O)c1ccc(O)c(O)c1 (stereo not given) has AC50 of > 30 µM

Per the record, `COc1cccc2c1C(=O)c1c(O)c3c(c(O)c1C2=O)C[C@@](O)(C(=O)CO)C[C@@H]3O[C@H]1C[C@H](N)[C@H](O)[C@H](C)O1` has AC50 of > 10 µM

###

# Tested system: Estrogen receptor (Homo sapiens, UniProt P03372); further: assay procedure not described here
# Sequence (P03372 whole entry): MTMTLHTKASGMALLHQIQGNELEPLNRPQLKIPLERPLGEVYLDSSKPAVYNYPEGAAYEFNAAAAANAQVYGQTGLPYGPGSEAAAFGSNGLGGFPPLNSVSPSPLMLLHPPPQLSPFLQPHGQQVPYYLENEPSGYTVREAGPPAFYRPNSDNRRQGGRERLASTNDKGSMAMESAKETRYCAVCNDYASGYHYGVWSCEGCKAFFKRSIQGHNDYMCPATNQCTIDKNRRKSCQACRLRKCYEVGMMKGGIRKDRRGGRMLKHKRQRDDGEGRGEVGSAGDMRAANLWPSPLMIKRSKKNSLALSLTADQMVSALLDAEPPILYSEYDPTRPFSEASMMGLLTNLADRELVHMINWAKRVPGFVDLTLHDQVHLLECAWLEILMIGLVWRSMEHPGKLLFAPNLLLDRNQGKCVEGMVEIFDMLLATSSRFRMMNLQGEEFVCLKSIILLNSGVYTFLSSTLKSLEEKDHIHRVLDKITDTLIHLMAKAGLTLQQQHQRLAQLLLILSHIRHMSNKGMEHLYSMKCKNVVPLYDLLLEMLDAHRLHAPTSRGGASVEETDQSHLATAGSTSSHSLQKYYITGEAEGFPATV
Property: AC50

Record for CC(=O)OCC(=O)[C@@]1(O)CC[C@H]2[C@@H]3CCC4=CC(=O)CC[C@]4(C)[C@@]3(F)[C@@H](O)C[C@@]21C [FLUDROCORTISONE ACETATE] under target or system Estrogen receptor (Homo sapiens, UniProt P03372): AC50 reported as > 30 µM

Record for CC(C)(C)NCC(O)COc1cccc2c1CC(O)C(O)C2 (centres undefined) under target or system Estrogen receptor (Homo sapiens, UniProt P03372): AC50 reported as > 10 µM

Record for Cc1cccc(Nc2ccncc2S(=O)(=O)NC(=O)NC(C)C)c1 [TORSEMIDE] under target or system Estrogen receptor (Homo sapiens, UniProt P03372): AC50 reported as > 10 µM

Record for `NCCCNCCSP(=O)(O)O` under target or system Estrogen receptor (Homo sapiens, UniProt P03372): AC50 reported as > 30 µM

Record for `CN(C)CCOCC(=O)NC12CC3CC(CC(C3)C1)C2` under target or system Estrogen receptor (Homo sapiens, UniProt P03372): AC50 reported as > 30 µM

Record for CC(=O)N1CCN(c2ccc(OCC3COC(Cn4ccnc4)(c4ccc(Cl)cc4Cl)O3)cc2)CC1 (centres undefined) under target or system Estrogen receptor (Homo sapiens, UniProt P03372): AC50 reported as > 10 µM

Record for CCOC(=O)C1=C(C)NC(C)=C(C(=O)OC)C1c1cccc(Cl)c1Cl (centres undefined) under target or system Estrogen receptor (Homo sapiens, UniProt P03372): AC50 reported as > 30 µM

Record for `COc1ccc(C(Cl)=C(c2ccc(OC)cc2)c2ccc(OC)cc2)cc1` under target or system Estrogen receptor (Homo sapiens, UniProt P03372): AC50 reported as 0.817 µM

Record for `C=CC1=C(C(=O)O)N2C(=O)[C@@H](NC(=O)/C(=N\O)c3csc(N)n3)[C@H]2SC1` under target or system Estrogen receptor (Homo sapiens, UniProt P03372): AC50 reported as > 30 µM

meta.source: ChEMBL document CHEMBL5291721
